targetOfAssay: ΔF508-CFTR (Homo sapiens, UniProt P13569, DEL508-508)
Construct: host or cells: CFBE41o-, doxycycline-inducible
Sequence (P13569 with tags, fused parts or gaps DEL508-508): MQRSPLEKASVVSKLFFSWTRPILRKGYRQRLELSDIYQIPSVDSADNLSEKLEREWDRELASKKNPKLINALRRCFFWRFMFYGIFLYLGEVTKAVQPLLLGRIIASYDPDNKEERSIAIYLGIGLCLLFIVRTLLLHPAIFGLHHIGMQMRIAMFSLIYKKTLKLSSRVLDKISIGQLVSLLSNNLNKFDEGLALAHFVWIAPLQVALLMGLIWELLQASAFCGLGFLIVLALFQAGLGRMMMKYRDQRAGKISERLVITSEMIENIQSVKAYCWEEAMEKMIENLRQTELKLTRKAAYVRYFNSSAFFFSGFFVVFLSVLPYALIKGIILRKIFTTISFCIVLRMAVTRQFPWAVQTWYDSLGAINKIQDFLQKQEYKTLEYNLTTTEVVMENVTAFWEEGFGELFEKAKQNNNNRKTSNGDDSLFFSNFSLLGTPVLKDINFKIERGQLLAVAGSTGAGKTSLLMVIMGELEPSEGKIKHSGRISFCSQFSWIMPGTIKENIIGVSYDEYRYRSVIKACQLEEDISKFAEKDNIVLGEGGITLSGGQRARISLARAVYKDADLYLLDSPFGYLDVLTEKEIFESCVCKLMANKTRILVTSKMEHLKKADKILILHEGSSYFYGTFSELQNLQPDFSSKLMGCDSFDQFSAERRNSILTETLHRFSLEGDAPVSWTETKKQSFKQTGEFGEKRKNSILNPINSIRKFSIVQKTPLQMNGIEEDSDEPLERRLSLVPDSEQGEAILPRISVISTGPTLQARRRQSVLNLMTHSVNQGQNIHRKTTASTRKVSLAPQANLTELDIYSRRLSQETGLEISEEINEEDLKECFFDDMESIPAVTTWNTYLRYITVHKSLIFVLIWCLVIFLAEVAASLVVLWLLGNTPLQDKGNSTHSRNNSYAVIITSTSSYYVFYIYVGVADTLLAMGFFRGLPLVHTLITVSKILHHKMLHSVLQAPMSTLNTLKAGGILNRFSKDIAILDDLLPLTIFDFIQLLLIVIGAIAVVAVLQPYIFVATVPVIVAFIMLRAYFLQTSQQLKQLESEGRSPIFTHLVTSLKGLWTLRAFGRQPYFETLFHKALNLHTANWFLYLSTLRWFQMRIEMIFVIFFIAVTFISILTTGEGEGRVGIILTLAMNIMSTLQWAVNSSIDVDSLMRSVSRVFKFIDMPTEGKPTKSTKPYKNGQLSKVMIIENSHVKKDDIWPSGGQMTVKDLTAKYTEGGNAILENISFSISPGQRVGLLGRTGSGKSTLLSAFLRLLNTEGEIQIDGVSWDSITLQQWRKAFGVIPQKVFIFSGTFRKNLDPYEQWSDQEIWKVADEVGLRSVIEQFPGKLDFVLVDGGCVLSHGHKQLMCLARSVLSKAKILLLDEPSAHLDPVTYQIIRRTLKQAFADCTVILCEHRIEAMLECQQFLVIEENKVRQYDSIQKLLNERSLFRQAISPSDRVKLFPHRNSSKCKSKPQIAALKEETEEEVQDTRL
testProtocol: CFTR cell surface levels using HRP-tagged ΔF508-CFTR expressing CFBE cells, intrinsic corrector capacity
Assay type: cell-based
protocolConditions: HRP-tagged ΔF508-CFTR expressing CFBE41o- cells; compound alone (intrinsic corrector capacity); 20 hours at 33° C.; read-out: EC50
measuredAttribute: pEC50
Interpret pEC50 as the negative base-10 log of the concentration measured in mol/L.

Consider the reported pEC50 for these molecules:
Request: I'd like to know its pEC50. The molecule in question is `CCS(=O)(=O)NC(=O)c1cc(-c2ccc(OC)cc2)c2c(C)nn(-c3cccc(C)c3)c2n1`
Response: 5.91

Request: I'd like to know its pEC50. The molecule in question is `CC(C)c1nn(-c2cccc(N3CCCC3)c2)c2nc(C(=O)NS(C)(=O)=O)cc(-c3ccc(N4CCOCC4)cc3)c12`
Response: 6.27

Next:
Request: I'd like to know its pEC50. The molecule in question is `CN(C)S(=O)(=O)NC(=O)c1cc(N2CCC(N3CCOCC3)CC2)c2c(C3CCC3)nn(-c3ccc(C(F)(F)F)cc3)c2n1`
Response: 6.76

Request: I'd like to know its pEC50. The molecule in question is CC(C)Oc1nn(C2CCCCC2)c2nc(C(=O)NS(C)(=O)=O)cc(-c3ccc(C(=O)N4CC5CNCC5C4)cc3)c12 (stereo not shown)
Response: 5.48
